Test system: Nuclear hormone receptor DAF-12 (Heterodera glycines), GAL4 fusion
assay: H. glycines DAF-12 receptor agonists, primary screen, cell-based, luminescence, HEK293, GAL4 fusion, UAS-luciferase (AID 687014);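 note: 0% = DMSO wells and 100% = sodium butyrate wells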
reportedConditions: HEK293 GAL4-hgDAF12 UAS-luciferase reporter, agonist luminescence; at 6.8 µM; active compounds read high; normalized to butyrate control
Among all 370,000 compounds or so, about 6,800 (1.8%) were called active. Many of the other results were omitted from the sample, so actives are more common in it than they were.
endpointName: activation

The examples below pair each entry with its known result.
>>> result("COC(=O)C1=C(C)N(Cc2cccc(C(F)(F)F)c2)C(=NCc2ccccc2)NC1c1ccc(Cl)cc1 (configuration not stated)")
"4.18% (inactive)"
>>> result("Cc1ccc(OCCOc2cccc(/C=N/NC(N)=O)c2)cc1")
"5.18% (inactive)"
>>> result("O=[N+]([O-])c1ccc2c(c1)C(N1CCOCC1)/C(=C/C1(O)CCCCC1)O2 (configuration not stated)")
"-1.36% (inactive)"

Look up and state reported activation for "C=CCN1C(=O)[C@@H](CC(=O)NCCCOCCCC)[C@]2(C(=O)OCC)CCCCC/C=C/12"
-2.8% (inactive)

Look up and state reported activation for "CCCN(CCC)C(=O)C1c2ccccc2Oc2ccccc21"
-0.5% (inactive)

Look up and state reported activation for "CCOc1ccccc1/C=N/Nc1nc2ccccc2o1"
10.6% (active)

Look up and state reported activation for "Fc1ccccc1OCCSc1nc2ccccc2o1"
3.51% (inactive)

---

# activation annotations
Test system: Nuclear hormone receptor DAF-12 (Heterodera glycines), GAL4 fusion
assay: H. glycines DAF-12 receptor agonists, primary screen, cell-based, luminescence, HEK293, GAL4 fusion, UAS-luciferase (AID 687014);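 note: 0% = DMSO wells and 100% = sodium butyrate wells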
reportedConditions: HEK293 GAL4-hgDAF12 UAS-luciferase reporter, agonist luminescence; at 6.8 µM; active compounds read high; normalized to butyrate control
In all, about 370,000 compounds went through this assay and about 6,800 (1.8%) were called active. The full list was thinned out, with actives kept by preference.
Field: numeric (%). Do not append units.

>>> measurednumber("COC(=O)c1ccc(COC(=O)C2CCN(S(=O)(=O)c3c(Cl)cccc3Cl)CC2)o1")
-1.37

Look up and state reported activation for "O=C(Nc1ccccc1)N1CCN(Cc2nc3ccccc3c(=O)[nH]2)CC1"
3.62

Look up and state reported activation for "C[C@@H]1CN([C@@H](C)CO)C(=O)c2c(c3ccccc3n2C)-c2ccccc2CO[C@H]1CN(C)C(=O)C1CC1"
0.34

Look up and state reported activation for "COc1ccccc1CCn1cnc(-c2ccccc2)c1C(C)C"
-2.29

Look up and state reported activation for "COc1cccc(N(C)C(=O)[C@@H](C)[C@@H](O)c2ccc3ccccc3c2)c1"
-0.12

---

# activation annotations
Tested on: Nuclear hormone receptor DAF-12 (Heterodera glycines), GAL4 fusion
assay: H. glycines DAF-12 receptor agonists, primary screen, cell-based, luminescence, HEK293, GAL4 fusion, UAS-luciferase (AID 687014);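 note: 0% = DMSO wells and 100% = sodium butyrate wells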
reportedConditions: HEK293 GAL4-hgDAF12 UAS-luciferase reporter, agonist luminescence; at 6.8 µM; active compounds read high; normalized to butyrate control
Hit rate of the full screen: of about 370,000 compounds, about 6,800 (1.8%) were called active. The entries come from a sample that favours actives as a whole.
Field: numeric (%). Do not append units.

The examples below pair each entry with its known result.
>>> measurednumber("Cc1ccc(C(=O)NCC(=O)OCC(=O)Nc2cccc(S(=O)(=O)N3CCCC3)c2)cc1C")
0.26
>>> measurednumber("Cc1nc2cc(NC(=O)Nc3cccc(F)c3)ccc2n1C")
14.2

Look up and state reported activation for "COc1ccc(CN2C/C(=C/c3ccccc3)N3C(=O)C[C@@H](c4ccccc4)N=C23)c(OC)c1"
1.14

Look up and state reported activation for "COc1ccc(CSc2nnc(-c3cccc(C)c3)n2C)cc1"
-0.32

Look up and state reported activation for "CC(C)(C)c1ccc(C(=O)Nc2cc(Cl)c(Br)cc2C(=O)O)cc1"
-1.36

Look up and state reported activation for "O=C(Nc1ccc2c(c1)CCC2)c1ccc(Br)s1"
19.2

Look up and state reported activation for "Cc1nc2cc(NCc3cccs3)ccc2n1C"
8.48

---

Tested on: Nuclear hormone receptor DAF-12 (Heterodera glycines), GAL4 fusion
assay: H. glycines DAF-12 receptor agonists, primary screen, cell-based, luminescence, HEK293, GAL4 fusion, UAS-luciferase (AID 687014);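 note: 0% = DMSO wells and 100% = sodium butyrate wells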
reportedConditions: HEK293 GAL4-hgDAF12 UAS-luciferase reporter, agonist luminescence; at 6.8 µM; active compounds read high; normalized to butyrate control
In all, about 370,000 compounds went through this assay and about 6,800 (1.8%) were called active. The sample holds actives, similar compounds and a random draw of the others, so the mix is not that of the screen.
endpointName: activation (%)
Field: numeric (%). Do not append units.

The examples below pair each entry with its known result.
>>> measurednumber("Cc1nc(NC(=O)c2ccc3c(c2)OCCO3)ccc1Br")
7.16
>>> measurednumber("COc1ccc(CCC(=O)OCC(=O)Nc2ccc(C)c(S(=O)(=O)N(C)C)c2)cc1")
-1.79
>>> measurednumber("CC(OC(=O)CNC(=O)c1ccco1)C(=O)Nc1ccc(Cl)cn1 (stereo not drawn)")
1.56
>>> measurednumber("CC1(c2ccc(Cl)cc2)NC(=O)N(CC(=O)c2ccc3c(c2)OCO3)C1=O (stereo not drawn)")
-1.6
>>> measurednumber("Cc1cccc(OCC(=O)NC2CC(C)(C)NC(C)(C)C2)c1")
0.72
>>> measurednumber("Cc1cccc(OCC(=O)Nc2ccccc2F)c1")
11.4
>>> measurednumber("C[C@H](C(=O)N(C)c1ccccc1)[C@@H](O)c1ccc(Cl)cc1")
1.73
>>> measurednumber("CCOc1cc(C(=O)N2CCc3cc(OC)c(OC)cc3C2)ccc1OC(F)F")
-2.99
>>> measurednumber("Cc1nc(N2CCCCC2)sc1C=O")
1.15
>>> measurednumber("O=C(CSc1nnc(-c2ccccn2)n1-c1ccccc1)Nc1ccc2cn[nH]c2c1")
6.78

Look up and state reported activation for CC1CC(C)CN(CCCNC(=O)c2csc3c2CCCCC3)C1 (stereo not drawn)
1.68

Look up and state reported activation for "O=C(CCSc1ccccc1)N1CCN(c2ccccc2F)CC1"
14.2

---

System: Nuclear hormone receptor DAF-12 (Heterodera glycines), GAL4 fusion
assay: H. glycines DAF-12 receptor agonists, primary screen, cell-based, luminescence, HEK293, GAL4 fusion, UAS-luciferase (AID 687014);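 note: 0% = DMSO wells and 100% = sodium butyrate wells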
reportedConditions: HEK293 GAL4-hgDAF12 UAS-luciferase reporter, agonist luminescence; at 6.8 µM; normalized to butyrate control
Hit rate of the full screen: of about 370,000 compounds, about 6,800 (1.8%) were called active.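 How the source made its calls: active means activation above a cutoff set at the mean of all screened compounds plus 3 SD (cut at about 10% in these data); inactive means the rest.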 The sample holds actives, similar compounds and a random draw of the others, so the mix is not that of the screen.
Could you please pick one outcome from this set? active, inactive

The following compounds have reported results that may help.
>>> grouplabel("Cc1ccccc1NC(=O)Cn1nnc(-c2ccccc2F)n1")
"inactive"
>>> grouplabel("CN1CCN(NC(=O)c2ccc(S(=O)(=O)N3CCCCCC3)cc2)CC1")
"inactive"
>>> grouplabel("O=C(Nc1ncccc1O)c1ccc(S(=O)(=O)N2CCCCCC2)cc1")
"active"
>>> grouplabel("CN1OC[C@@H]2CN[C@H](c3ccc(-c4ccccc4)cc3)C[C@@H]21")
"active"
>>> grouplabel("O=C(CCCCCN1C(=O)C2C3C=CC(C3)C2C1=O)Nc1ccccc1 (stereo unspecified)")
"inactive"
>>> grouplabel("CC(=O)N1CC2(C)CN(C(C)=O)CC(C)(C1)C2=O")
"inactive"
>>> grouplabel("O=C(Nc1ncccc1O)c1ccc(C(=O)c2ccccc2)cc1")
"active"
>>> grouplabel("COCCNC(=O)Cn1cc2c(n1)CCCCC2")
"inactive"

Read the next record carefully.
Please state the recorded outcome for this compound: "Cc1cc(Br)ccc1NC(=S)NC1CCCC1"
inactive

---

System: Nuclear hormone receptor DAF-12 (Heterodera glycines), GAL4 fusion
assay: H. glycines DAF-12 receptor agonists, primary screen, cell-based, luminescence, HEK293, GAL4 fusion, UAS-luciferase (AID 687014);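 note: 0% = DMSO wells and 100% = sodium butyrate wells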
reportedConditions: HEK293 GAL4-hgDAF12 UAS-luciferase reporter, agonist luminescence; at 6.8 µM; normalized to butyrate control
In all, about 370,000 compounds went through this assay and about 6,800 (1.8%) were called active.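 How the source made its calls: active means activation above a cutoff set at the mean of all screened compounds plus 3 SD (cut at about 10% in these data); inactive means the rest.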 For the sample, actives were picked, then their nearest neighbours and some compounds at random.
Could you please pick one outcome from this set? true (1) = active, false (0) = inactive

The following molecules have reported results that may help.
>>> grouplabel("Cc1ccc(-n2c(SCC(=O)Nc3ccc(S(=O)(=O)Nc4nccs4)cc3)nnc2-c2ccncc2)cc1")
"false (0)"
>>> grouplabel("Brc1ccc(-c2nnc(-c3ccccc3)o2)o1")
"true (1)"
>>> grouplabel("COc1ccc(N2CCN(CCNS(=O)(=O)c3ccc(Cl)s3)CC2)cc1")
"false (0)"
>>> grouplabel("CC(=O)Nc1ccc(S(=O)(=O)NCC(=O)OCC(=O)c2ccc[nH]2)cc1")
"false (0)"
>>> grouplabel("N#Cc1ccc(C2N=C(c3ccccc3)NO2)cc1 (configuration not stated)")
"false (0)"
>>> grouplabel("CCOC(=O)Cn1c2c(n(-c3ccc(F)cc3)c1=O)C=C(c1ccccc1)[C@@H](C)C(C(=O)N(C)C1CCCCC1)=C2")
"false (0)"
>>> grouplabel("COC(=O)C(C(=O)OC)c1ccccc1NS(=O)(=O)c1cccc2ccccc12")
"false (0)"
>>> grouplabel("O=C(NCc1ccccc1)[C@@H]1CCCN1C(=O)[C@@H](NS(=O)(=O)c1ccc(F)cc1F)C1CCCCC1")
"false (0)"
>>> grouplabel("O=C(N/N=C/c1ccoc1)c1ccc(Cl)cc1Cl")
"false (0)"
>>> grouplabel("Nc1ccc(-c2nnc(-c3ccccc3)o2)cc1")
"true (1)"

Please state the recorded outcome for this molecule: "COC(=O)[C@]12C[C@H](CC(=O)NCCc3ccccc3OC)C(=O)N(Cc3ccco3)C1=C[C@H](C(C)C)O[C@@H]2C1CC1"
false (0)
